Reference source: patent US20210188972A1

Molecular target: T1, Human PTGFRN-ECD (extracellular domain; amino-acid 26 to amino-acid Y at 832), His-tag protein (human, UniProt Q9P2B2 26-832)
T1 construct: range 26-832; Expressed in Hek-293 cells, purified on a nickel column; also called recombinant PTGFRN; not shown: His-tag
T1 sequence (looked up): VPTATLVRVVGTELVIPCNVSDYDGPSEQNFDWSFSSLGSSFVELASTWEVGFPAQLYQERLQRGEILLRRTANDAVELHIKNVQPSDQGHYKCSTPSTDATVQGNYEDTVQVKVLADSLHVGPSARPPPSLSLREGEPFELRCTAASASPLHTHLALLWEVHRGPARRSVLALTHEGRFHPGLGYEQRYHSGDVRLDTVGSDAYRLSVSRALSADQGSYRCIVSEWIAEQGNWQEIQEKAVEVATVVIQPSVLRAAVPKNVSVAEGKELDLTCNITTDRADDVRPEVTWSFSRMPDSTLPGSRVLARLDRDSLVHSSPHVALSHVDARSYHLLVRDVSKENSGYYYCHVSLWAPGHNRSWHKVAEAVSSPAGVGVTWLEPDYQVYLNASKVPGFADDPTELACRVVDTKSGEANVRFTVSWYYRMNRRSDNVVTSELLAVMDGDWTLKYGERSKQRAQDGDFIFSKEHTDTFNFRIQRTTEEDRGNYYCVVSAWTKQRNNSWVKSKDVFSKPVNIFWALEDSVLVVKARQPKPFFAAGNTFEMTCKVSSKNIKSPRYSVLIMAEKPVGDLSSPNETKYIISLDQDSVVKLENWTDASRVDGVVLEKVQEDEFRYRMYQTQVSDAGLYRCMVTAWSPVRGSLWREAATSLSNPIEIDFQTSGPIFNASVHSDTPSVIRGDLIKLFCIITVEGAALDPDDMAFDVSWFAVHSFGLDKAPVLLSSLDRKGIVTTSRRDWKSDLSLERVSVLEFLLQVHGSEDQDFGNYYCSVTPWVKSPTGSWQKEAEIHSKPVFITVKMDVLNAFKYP
Test: Octet Red96 pairing (binning matrix) on PTGFRN-ECD; capture Ab (1st loading Ab): 9A9
measure: Octet pairing response

binder | result
1E2 (antibody, V domains shown, Mouse hybridoma mAb) VH: DVQLQESGPGLVKPSQSLSLTCSVTDYSITSGYYWNWIRQFPGNKLEWMGYISYDGSNNYNPSLKNRLSITRDTSKNQFFLKLNSVTPEDTATYYCARGWDYCFDYWGQGATLTVSS VL: DIQMTQTTSSLSASLGDRVTISCSASQGISNYLNWYQQKPDGTVKLLIYYTSGLHSGVPSRFSGSGSGTDYSLTISNLEPEDIATYYCQQYSQLPWTFGGGTKLEIK | 0.27
2B12 (antibody, V domains shown, Mouse hybridoma mAb) VH: QVQLQQPGAELVKPGASVKMSCKASGYTFTSYWITWVKQGPGQGLEWIGDIYPGSGNTNYNEKFKSKATLTVDTSSSTAYMQLSSLTSEDSAVYYCARFFILTSYYFDYWGQGTTLTVSS VL: GIVMTQSQKFMSTTVGDRVSITCKASQNVGTAVAWFQQKPGQSPKLLIYLASNRYTGVPDRFTGSGSGTDFTLTISNMQSEDLADYFCQQYSNYPLTFGAGTKLELK | 0.0744
3E10 (antibody, V domains shown) VH: EVHLVESGGDLVKPGGSLKLSCAASGFTFSSYGMSWVRQTPDKRLEWVASISSGGSHTYYPDRVKGRFTISRDNAKNTLYLQMSSLKSEDTAMYYCARHPSYYGSSLYCFDYWGQGTTLTVSS VL: DIQMTQTTSSLSASLGDRVTISCRASQDISNYLNWYQQKPDGTVKLLIYYTSRLHSGVPSRFSGSGSGTDFSLTISNLEQEDVATYFCQQGSTLPWTFGGGTKLEIK | 0.224
6F6 (antibody, V domains shown, Mouse hybridoma mAb) VH: QVQLQQSGAELVKPGASVKVSCKASGYTFTTYWMHWVKQRPGQGLEWIGRIHPSDSDTNYNQKFKGKATLTLDKSSSTAYMQLSSLTSEDSAVYYCAMSLYYTMDYWGQGTSVTVSS VL: DIQMTQSPSSLSASLGGKVTITCKASQDIKKYIAWYQHKPGKGPRLLIHYTSTLQPGIPSRFSGSGSGRDYSFSISNLEPEDIATYYCLQYDNLLYTFGGGTKLEIK | 0.222
